# METHOD DESCRIPTION: cAMP Responsive Elements (CRE) small molecule agonists, cell-based qHTS assay (AID 1963590); note: % is set by controls: 0 for no effect and ±100 for the full control effect
# ASSAY CONDITIONS: CRE-bla HEK293T, beta-lactamase FRET ratio, 3 h; series mostly up to 92.4 µM
Records with an inconclusive call do not appear. Active and inactive are the calls of the source. Calls come from the whole dose curve.
ASSAY METRIC: activation

Please review the entries below; each comes with its answer.
COMPOUND | activation
Nc1c(Br)cc([N+](=O)[O-])cc1[N+](=O)[O-] | inactive
Cc1ccc2ccccc2c1 | inactive
Oc1cc(Cl)ccc1Cl | inactive
C=CCN1C[C@H](C)N([C@H](c2ccc(C(=O)N(CC)CC)cc2)c2cccc(OC)c2)C[C@H]1C | inactive
CC1(C)CC(=O)CC(C)(C)N1[O] | inactive

# next compound below
What measured activation goes with `CN(C)C(=O)Nc1cccc(C(F)(F)F)c1` ?
inactive

###

# TARGET ENTITY: Beta-2 adrenergic receptor (Homo sapiens) (UniProt P07550)
# Sequence (P07550 whole entry, looked up): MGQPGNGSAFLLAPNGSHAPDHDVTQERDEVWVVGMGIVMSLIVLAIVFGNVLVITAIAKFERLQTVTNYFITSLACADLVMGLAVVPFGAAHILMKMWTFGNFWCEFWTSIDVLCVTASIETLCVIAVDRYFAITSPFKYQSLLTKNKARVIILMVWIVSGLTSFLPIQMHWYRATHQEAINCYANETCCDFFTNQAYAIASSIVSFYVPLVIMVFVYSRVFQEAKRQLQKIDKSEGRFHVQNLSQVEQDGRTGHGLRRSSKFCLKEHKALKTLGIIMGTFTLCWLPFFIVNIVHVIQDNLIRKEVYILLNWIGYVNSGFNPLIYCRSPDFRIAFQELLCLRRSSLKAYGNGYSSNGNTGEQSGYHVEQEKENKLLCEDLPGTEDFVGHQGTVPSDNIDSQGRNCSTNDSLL
# METHOD DESCRIPTION: Adrenergic beta2 receptor (ADRB2) small molecule antagonists, cell-based qHTS assay (AID 1963592); note: % is set by controls: 0 for no effect and ±100 for the full control effect; nearly all actives have a fitted effect of over 50% in size
# ASSAY CONDITIONS: CHO-ADRB2 cells, isoproterenol-stimulated cAMP HTRF ratio, 0.5 h; series mostly up to 92.4 µM
Records with an inconclusive call do not appear. Active and inactive are the calls of the source. Calls come from the whole dose curve.
ASSAY METRIC: outcome

COMPOUND | outcome
O=C(O)COc1ccccc1 | inactive
C#CC(C)(C)NC(=O)c1cc(Cl)cc(Cl)c1 | inactive
O=c1oc2ccccc2c(O)c1C(CC(O)c1ccc(-c2ccc(Br)cc2)cc1)c1ccccc1 (stereo not drawn) | inactive
COc1ccc(C=O)cc1OC | inactive
CC(C)Nc1ccc(Nc2ccccc2)cc1 | inactive

What measured outcome goes with CCCCC(CC)CO[N+](=O)[O-] (stereo not drawn) ?
inactive

Also `CCN(CC)C1CCCCC1` , if possible.
inactive

Also `BrCc1ccc(Br)cc1` , if possible.
inactive

Also `CNC(C)(C)Cc1ccccc1` , if possible.
inactive

###

# METHOD DESCRIPTION: Nuclear factor erythroid 2-related factor 2/antioxidant responsive element (Nrf2/ARE) small molecule agonists: luciferase reporter gene qHTS assay in human keratinocytes (AID 1919969); note: nearly all actives have a fitted effect of over 35% in size
# ASSAY CONDITIONS: KeratinoSens HaCaT ARE-luciferase, luminescence, 24 h; series mostly up to 92.4 µM
Results filed as inconclusive are left out. Calls of active or inactive are those of the source. Calls come from the whole dose curve.
# valid calls are active, inactive; nothing else

Previously resolved entries follow.
MOLECULE | LABEL CLASS
CC1CC(=O)O1 (stereo unspecified) | inactive
Cn1c(N)nc2c3cccnc3ccc21 | inactive
COc1cc(OC)nc(Oc2cccc(Oc3nc(OC)cc(OC)n3)c2C(=O)O)n1 | inactive
CNC(=O)NC(O)C(Cl)(Cl)Cl (stereo unspecified) | inactive

Name the outcome recorded for `[N-]=[N+]=[N-]` in the assay.
inactive

Also CCC1(c2ccccc2)CCC(=O)NC1=O (stereo unspecified) , if possible.
inactive

Also `CCCCCBr` , if possible.
inactive

Also `c1ccc(CN2CCNCC2)cc1` , if possible.
inactive

Also `CNC(=O)CSP(=S)(OC)OC` , if possible.
inactive

Also `COCCl` , if possible.
inactive

Also `COP(=S)(OC)Oc1ccc([N+](=O)[O-])cc1` , if possible.
inactive

Also `C/C=C/CC#N` , if possible.
inactive

Also `CNC(=S)S` , if possible.
inactive

Also `CN(C)c1ccccc1` , if possible.
inactive

###

# TARGET ENTITY: D(2) dopamine receptor (Homo sapiens)
# METHOD DESCRIPTION: Dopamine D2 receptor (DRD2) small molecule antagonists, cell-based qHTS assay (AID 1963595); note: % is set by controls: 0 for no effect and ±100 for the full control effect
# ASSAY CONDITIONS: HEK293-DRD2 cAMP HTRF antagonist mode; series mostly up to 92.4 µM
Records with an inconclusive call do not appear. The source made the active and inactive calls. Calls follow the shape of the dose curve; as a rule, active = well fitted inhibition curve with a large enough effect in the signal ratio in the repeat runs, with a control signal flat; inconclusive = weak or mixed curves, or effect the other way; inactive = flat fitted curve, though single readings scatter; the % refers to the signal ratio.
# valid calls are TRUE = active, FALSE = inactive; nothing else

Name the outcome recorded for `COCC(=O)N(c1c(C)cccc1C)[C@H](C)C(=O)OC` in the assay.
FALSE

Also `CN(C)c1nc(=O)n(C2CCCCC2)c(=O)n1C` , if possible.
FALSE

###

# METHOD DESCRIPTION: Nuclear factor erythroid 2-related factor 2/antioxidant responsive element (Nrf2/ARE) small molecule agonists: qHTS cell viability counter screen in human keratinocytes (AID 1919968); note: nearly all actives have a fitted effect of over 55% in size
# ASSAY CONDITIONS: KeratinoSens HaCaT ARE cells viability, CellTiter-Fluor, 24 h; series mostly up to 92.4 µM
Records with an inconclusive call do not appear. Activity calls are given as the source filed them. The call rests on the fitted dose curve; in most records, active means well fitted cell-killing curve with a large enough effect in the repeat runs; inconclusive means weak or mixed curves, or effect the other way; inactive means flat fitted curve, though single readings scatter.
# valid calls are class 1 = active, class 0 = inactive; nothing else

Previously resolved entries follow.
COMPOUND | LABEL CLASS
COc1ccc(C=O)cc1OC | class 0
CCc1cccc(CC)c1N(COC)C(=O)CCl | class 0
Cc1cnc(C2=NC(C)(C(C)C)C(=O)N2)c(C(=O)O)c1 (stereo not given) | class 0

Name the outcome recorded for `CCCCCC[n+]1ccccc1` in the assay.
class 0

Also `CC(C)OC(=O)Cc1ccccc1` , if possible.
class 0

Also `CNC(=S)S` , if possible.
class 0

Also `Cc1ccc(Cl)c(O)c1` , if possible.
class 0

Also `CCNc1nc(Cl)nc(NC(C)C)n1` , if possible.
class 0

Also `C=CCN(CC=C)C(=O)C(Cl)Cl` , if possible.
class 0

Also `O=C1c2ccccc2C(=O)N1SC(Cl)(Cl)Cl` , if possible.
class 1

Also `CC(=O)O` , if possible.
class 0

Also CC(O)CN1CCN(CC(=O)[O-])CCN(CC(=O)[O-])CCN(CC(=O)[O-])CC1.[Gd+3] (stereo not given) , if possible.
class 0

Also `c1ccc2c(c1)oc1ccccc12` , if possible.
class 0

Also CCCCCCC1CCOC1=O (stereo not given) , if possible.
class 0

Also COc1ccc(C(CN(C)C)C2(O)CCCCC2)cc1 (stereo not given) , if possible.
class 0

###

# METHOD DESCRIPTION: cAMP Responsive Elements (CRE) small molecule agonists, cell-based qHTS assay (AID 1963590); note: % is set by controls: 0 for no effect and ±100 for the full control effect
# ASSAY CONDITIONS: CRE-bla HEK293T, beta-lactamase FRET ratio, 3 h; series mostly up to 92.4 µM
Records with an inconclusive call do not appear. Calls of active or inactive are those of the source. The call rests on the fitted dose curve.
ASSAY METRIC: activation

Please review the entries below; each comes with its answer.
COMPOUND | activation
C1=Cc2cccc3cccc1c23 | inactive
Cc1ccc(O)c(C)c1 | inactive
O=[N+]([O-])c1cc(Cl)c(Cl)c(Cl)c1 | inactive
CC(C)(C#N)N=NC(C)(C)C#N | inactive
CCOC(=O)c1ccccc1C(=O)OCC | inactive

What measured activation goes with `COP(=S)(OC)Oc1cc(Cl)c(Cl)cc1Cl` ?
inactive

Also `O=C(O)CC[N+](=O)[O-]` , if possible.
inactive

Also `Nc1cnn(-c2ccccc2)c(=O)c1Cl` , if possible.
inactive

Also `NC(=O)CCl` , if possible.
inactive

Also `Clc1ccc(C(Cl)(Cl)Cl)c(Cl)c1` , if possible.
inactive

Also `NNc1ccccc1` , if possible.
inactive

Also Cc1cc(Cl)ccc1OC(C)C(=O)O (stereo unspecified) , if possible.
inactive

Also `N#CCCCl` , if possible.
inactive

Also `Cc1cccc(N)c1` , if possible.
inactive

Also `O=S(=O)(O)C(F)(F)C(F)(F)C(F)(F)C(F)(F)C(F)(F)C(F)(F)C(F)(F)C(F)(F)F` , if possible.
inactive

Also `O=C(O)C(Cl)Cl` , if possible.
inactive

###

# METHOD DESCRIPTION: Nuclear factor erythroid 2-related factor 2/antioxidant responsive element (Nrf2/ARE) small molecule agonists: luciferase reporter gene qHTS assay in human keratinocytes (AID 1919969); note: nearly all actives have a fitted effect of over 35% in size
# ASSAY CONDITIONS: KeratinoSens HaCaT ARE-luciferase, luminescence, 24 h; series mostly up to 92.4 µM
Results filed as inconclusive are left out. Activity calls are given as the source filed them. Calls follow the shape of the full dose curve.
# valid calls are active, inactive; nothing else

Previously resolved entries follow.
COMPOUND | LABEL CLASS
CCCCN(CC)c1c([N+](=O)[O-])cc(C(F)(F)F)cc1[N+](=O)[O-] | active
O=P(O)(O)CN(CP(=O)(O)O)CP(=O)(O)O | inactive
CCC(=O)c1ccccc1 | inactive
CC1CCC(=O)O1 (stereo not given) | inactive
CCN(CCO)CCO | inactive
O=NN1CCCCC1 | inactive
CCOC(=O)C(c1c(O)c2ccccc2oc1=O)c1c(O)c2ccccc2oc1=O | inactive
CC(C)CC(C)(c1ccc(O)cc1)c1ccc(O)cc1 | inactive
ClCCOCCCl | inactive
CCC(Cl)[N+](=O)[O-] (stereo not given) | inactive

Name the outcome recorded for `CC(C)(O)C(=O)Nc1ccc([N+](=O)[O-])c(C(F)(F)F)c1` in the assay.
inactive

Also OCC(O)CCl (stereo not given) , if possible.
inactive

Also `N#CSCSC#N` , if possible.
active

Also CC(C(=O)c1ccccc1)N(C)C (stereo not given) , if possible.
inactive

Also `Nc1cnn(-c2ccccc2)c(=O)c1Cl` , if possible.
inactive

Also C1CCC2CCCCC2C1 (stereo not given) , if possible.
inactive

Also `C/C(=N\NC(=O)Nc1cc(F)cc(F)c1)c1ncccc1C(=O)O` , if possible.
inactive

Also `CSc1nc(NC(C)C)nc(NC(C)C)n1` , if possible.
inactive
